# test_system: CFTR in F508del/MF-HBE cells (Homo sapiens, UniProt P13569, DEL508-508)
# Construct: human bronchial epithelial (HBE) cells derived from CF subjects heterozygous for F508del and a minimal function CFTR mutation; endogenous in cells
# Sequence (P13569 with tags, fused parts or gaps DEL508-508): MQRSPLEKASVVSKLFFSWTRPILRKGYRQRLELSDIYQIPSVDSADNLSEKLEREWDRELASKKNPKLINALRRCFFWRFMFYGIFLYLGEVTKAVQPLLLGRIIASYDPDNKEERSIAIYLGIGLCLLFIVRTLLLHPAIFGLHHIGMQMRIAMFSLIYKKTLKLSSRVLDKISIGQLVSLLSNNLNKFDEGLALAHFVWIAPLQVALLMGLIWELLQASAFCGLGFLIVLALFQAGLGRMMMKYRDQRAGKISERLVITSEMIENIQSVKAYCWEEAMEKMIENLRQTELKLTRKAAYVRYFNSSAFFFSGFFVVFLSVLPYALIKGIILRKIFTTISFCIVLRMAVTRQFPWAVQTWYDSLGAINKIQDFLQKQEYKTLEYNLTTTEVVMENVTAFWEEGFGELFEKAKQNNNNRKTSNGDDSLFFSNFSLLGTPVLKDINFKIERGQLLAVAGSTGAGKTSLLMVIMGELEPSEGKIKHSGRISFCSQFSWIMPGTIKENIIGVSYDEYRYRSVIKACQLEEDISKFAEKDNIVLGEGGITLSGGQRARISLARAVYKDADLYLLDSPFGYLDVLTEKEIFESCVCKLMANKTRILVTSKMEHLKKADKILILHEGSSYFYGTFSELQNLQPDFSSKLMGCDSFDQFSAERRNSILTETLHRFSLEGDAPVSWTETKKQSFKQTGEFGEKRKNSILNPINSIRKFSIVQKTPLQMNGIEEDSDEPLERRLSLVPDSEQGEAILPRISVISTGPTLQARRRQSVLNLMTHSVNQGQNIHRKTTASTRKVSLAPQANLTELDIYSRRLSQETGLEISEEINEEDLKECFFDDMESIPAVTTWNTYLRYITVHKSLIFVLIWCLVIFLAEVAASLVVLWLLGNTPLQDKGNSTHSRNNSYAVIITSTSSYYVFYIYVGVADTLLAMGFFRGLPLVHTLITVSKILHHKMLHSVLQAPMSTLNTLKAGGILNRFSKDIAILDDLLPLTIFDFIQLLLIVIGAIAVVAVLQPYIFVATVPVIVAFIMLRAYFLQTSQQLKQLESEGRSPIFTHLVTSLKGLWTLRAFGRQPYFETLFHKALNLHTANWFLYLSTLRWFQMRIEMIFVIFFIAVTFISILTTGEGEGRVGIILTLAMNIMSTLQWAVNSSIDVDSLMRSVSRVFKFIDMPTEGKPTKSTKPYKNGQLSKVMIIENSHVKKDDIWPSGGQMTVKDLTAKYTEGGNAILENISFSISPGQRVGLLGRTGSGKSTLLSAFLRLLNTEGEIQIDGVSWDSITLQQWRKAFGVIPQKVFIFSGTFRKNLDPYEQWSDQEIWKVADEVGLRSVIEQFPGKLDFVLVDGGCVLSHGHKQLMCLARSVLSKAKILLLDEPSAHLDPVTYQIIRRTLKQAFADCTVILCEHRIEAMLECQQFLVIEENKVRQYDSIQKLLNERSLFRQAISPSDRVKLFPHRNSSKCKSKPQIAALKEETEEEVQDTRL
# assay_method_text: Ussing chamber assay of CFTR-mediated short-circuit currents (identification of potentiator compounds)
# conditions: potentiator incubated 18-24 hours at 37° C. in combination with 10 μM corrector, in the presence of 20% human serum, CFTR-mediated ISC
pEC50: −log10 of the molar value.
Property: pEC50; scope: individual compounds

compound: Nc1cc(C(F)(F)F)c2nc1-c1nnc(o1)[C@@](O)(C(F)(F)F)CCCCCN(Cc1cccc(OCC3(C(F)(F)F)CC3)c1)C2=O
test_system: CFTR in F508del/MF-HBE cells (Homo sapiens, UniProt P13569, DEL508-508)
pEC50: > 6.30
--
compound: NC[C@H]1CC[C@H](N2CCCCC[C@](O)(C(F)(F)F)C3=NN=C(O3)c3nc(c(C(F)(F)F)cc3N)C2=O)CC1
test_system: CFTR in F508del/MF-HBE cells (Homo sapiens, UniProt P13569, DEL508-508)
pEC50: < 6.00
--
compound: Nc1cc(C(F)(F)F)c2nc1-c1nnc(o1)[C@@](O)(C(F)(F)F)CCCCCN(C1C3CC1C3)C2=O (stereo partly drawn)
test_system: CFTR in F508del/MF-HBE cells (Homo sapiens, UniProt P13569, DEL508-508)
pEC50: > 6.30
--
compound: Nc1cc(C(F)(F)F)c2nc1-c1nnc(o1)[C@@](O)(C(F)(F)F)CCCCCN(Cc1ccc(OC(F)(F)F)cc1)C2=O
test_system: CFTR in F508del/MF-HBE cells (Homo sapiens, UniProt P13569, DEL508-508)
pEC50: > 6.30
--
compound: COc1cc(CN2CCCCC[C@](O)(C(F)(F)F)C3=NN=C(O3)c3nc(c(C(F)(F)F)cc3N)C2=O)ccc1C(F)(F)F
test_system: CFTR in F508del/MF-HBE cells (Homo sapiens, UniProt P13569, DEL508-508)
pEC50: > 6.30
--
compound: C[C@@H](c1ccc(F)cc1)N1CCCCC[C@](O)(C(F)(F)F)C2=NN=C(O2)c2nc(c(C(F)(F)F)cc2N)C1=O
test_system: CFTR in F508del/MF-HBE cells (Homo sapiens, UniProt P13569, DEL508-508)
pEC50: > 6.30

----------
# test_system: CFTR in F508del/MF-HBE cells (Homo sapiens, UniProt P13569, DEL508-508)
# Construct: human bronchial epithelial (HBE) cells derived from CF subjects heterozygous for F508del and a minimal function CFTR mutation; endogenous in cells
# assay_method_text: Ussing chamber assay of CFTR-mediated short-circuit currents (identification of potentiator compounds)
# conditions: potentiator incubated 18-24 hours at 37° C. in combination with 10 μM corrector, in the presence of 20% human serum, CFTR-mediated ISC
pEC50: −log10 of the molar value.
Property: pEC50; scope: individual molecules
property_name: pEC50

given_smiles: CC1(C)CCCC[C@](O)(C(F)(F)F)C2=NN=C(O2)c2nc(c(C(F)(F)F)cc2N)C(=O)N(Cc2ccc3c(c2)OC(F)(F)O3)C1
endpoint_result: > 6.30
--
given_smiles: CC(C)c1cccc(CN2CCCCC[C@](O)(C(F)(F)F)C3=NN=C(O3)c3nc(c(C(F)(F)F)cc3N)C2=O)c1
endpoint_result: > 6.30
--
given_smiles: CC1(C)CCCC[C@](O)(C(F)(F)F)C2=NN=C(O2)c2nc(c(C(F)(F)F)cc2N)C(=O)N1
endpoint_result: > 6.30
